Every entry's value here was drawn from patent US20250170248A1.

- systemTested: SMARCA2 (Homo sapiens, UniProt P51531)
- Sequence (P51531 whole entry): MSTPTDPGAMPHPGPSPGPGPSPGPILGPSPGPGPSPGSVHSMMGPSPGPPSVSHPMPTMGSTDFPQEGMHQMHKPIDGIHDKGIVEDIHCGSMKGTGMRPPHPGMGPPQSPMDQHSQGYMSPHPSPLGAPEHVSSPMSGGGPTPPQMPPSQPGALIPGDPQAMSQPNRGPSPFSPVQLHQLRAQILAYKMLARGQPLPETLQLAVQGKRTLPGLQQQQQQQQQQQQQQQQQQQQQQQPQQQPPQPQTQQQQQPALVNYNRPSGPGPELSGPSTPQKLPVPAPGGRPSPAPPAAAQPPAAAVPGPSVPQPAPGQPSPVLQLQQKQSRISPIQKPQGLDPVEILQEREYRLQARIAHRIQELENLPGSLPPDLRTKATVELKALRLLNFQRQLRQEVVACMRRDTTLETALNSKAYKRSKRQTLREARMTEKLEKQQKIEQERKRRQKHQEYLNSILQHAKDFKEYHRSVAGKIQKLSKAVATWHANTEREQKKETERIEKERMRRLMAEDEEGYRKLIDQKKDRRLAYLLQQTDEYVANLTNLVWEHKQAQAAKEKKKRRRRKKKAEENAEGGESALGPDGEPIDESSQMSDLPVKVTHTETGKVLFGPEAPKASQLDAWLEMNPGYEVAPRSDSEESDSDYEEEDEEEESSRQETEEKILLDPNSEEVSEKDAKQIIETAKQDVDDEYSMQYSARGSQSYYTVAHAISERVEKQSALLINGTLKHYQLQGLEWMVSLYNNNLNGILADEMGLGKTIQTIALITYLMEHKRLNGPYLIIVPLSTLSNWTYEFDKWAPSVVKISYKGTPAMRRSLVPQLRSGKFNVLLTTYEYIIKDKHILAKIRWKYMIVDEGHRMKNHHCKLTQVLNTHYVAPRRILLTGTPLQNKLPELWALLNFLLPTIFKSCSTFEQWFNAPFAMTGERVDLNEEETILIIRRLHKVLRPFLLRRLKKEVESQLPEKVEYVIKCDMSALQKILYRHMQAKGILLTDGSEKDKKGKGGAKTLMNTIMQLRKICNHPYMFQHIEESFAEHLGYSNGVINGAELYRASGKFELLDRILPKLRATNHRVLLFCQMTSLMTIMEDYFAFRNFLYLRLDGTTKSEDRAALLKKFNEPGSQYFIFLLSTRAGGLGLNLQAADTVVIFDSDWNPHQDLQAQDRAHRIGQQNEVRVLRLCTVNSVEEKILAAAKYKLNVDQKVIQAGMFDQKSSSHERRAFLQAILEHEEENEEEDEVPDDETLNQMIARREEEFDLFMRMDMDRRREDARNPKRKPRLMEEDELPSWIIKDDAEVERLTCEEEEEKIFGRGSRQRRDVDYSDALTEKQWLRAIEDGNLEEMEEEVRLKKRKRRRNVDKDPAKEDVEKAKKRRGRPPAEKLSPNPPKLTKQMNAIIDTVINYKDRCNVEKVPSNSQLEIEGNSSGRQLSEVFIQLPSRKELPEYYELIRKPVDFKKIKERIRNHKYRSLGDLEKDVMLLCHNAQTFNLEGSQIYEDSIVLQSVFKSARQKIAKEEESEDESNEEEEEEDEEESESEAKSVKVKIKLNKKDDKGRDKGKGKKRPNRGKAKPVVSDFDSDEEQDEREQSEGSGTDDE
- assaySummary: SMARCA2 Western blot degradation in MV4-11 cells
- Type: cell-based
- Parameters: SMARCA2/SMARCA4 protein degradation selectivity in MV4-11 cells; endogenous in cells; host or cells: MV4-11
- measurementConditions: SMARCA2/4 selectivity, MV4-11 cells
measure: Selectivity in MV411

These recorded examples may help you get a feel for the data.
Cc1ncsc1-c1ccc(CNC(=O)[C@@H]2C[C@@H](O)CN2C(=O)[C@@H](NC(=O)[C@H]2CC3(CC[C@H](N4CCC(c5cnc(N6CCN7c8cc(-c9ccccc9O)nnc8NC[C@H]7C6)nc5)CC4)CC3)C2)C(C)(C)C)cc1 (single isomer, unassigned) [I-66] : B (B (>100-500 fold))
C#Cc1ccc(CNC(=O)[C@@H]2C[C@@H](O)CN2C(=O)[C@@H](NC(=O)N2CC3(CC(N4CCC(c5cnc(N6CCc7[nH]c8nnc(-c9ccccc9O)cc8c7[C@H]6C)nc5)CC4)C3)C2)C(C)(C)CCOCC(=O)O)cc1 (single isomer, unassigned) : C (C (10-100 fold))
C#Cc1ccc(CNC(=O)[C@@H]2C[C@@H](O)CN2C(=O)[C@@H](NC(=O)[C@H]2CC[C@@H](c3ccc(-c4cnc(N5CCN6c7cc(-c8ccccc8O)nnc7NC[C@H]6C5)nc4)cc3)CC2)C(C)(C)C)cc1 : D (D (<10 fold))
C#Cc1ccc(CNC(=O)[C@@H]2C[C@@H](O)CN2C(=O)[C@@H](N(CCOC)C(=O)N2CC3(CC(N4CCC(c5cnc(N6CCc7[nH]c8nnc(-c9ccccc9O)cc8c7[C@H]6C)nc5)CC4)C3)C2)C(C)(C)C)cc1 : C (C (10-100 fold))
Cc1ncsc1-c1ccc(CNC(=O)[C@@H]2C[C@@H](O)CN2C(=O)[C@@H](NC(=O)[C@H]2CC3(C2)C[C@H](N2CCN(c4cnc(N5CCc6[nH]c7nnc(-c8ccccc8O)cc7c6[C@H]5C)nc4)CC2)C3)C(C)(C)C)cc1 (single isomer, unassigned) [I-76] : C (C (10-100 fold))
C#Cc1ccc(CNC(=O)[C@@H]2C[C@@H](O)CN2C(=O)[C@@H](NC(=O)N2CC3(CC(N4CCC(N5CCC(N6CCc7[nH]c8nnc(-c9ccccc9O)cc8c7[C@H]6C)CC5)CC4)C3)C2)C(C)(C)C)c(F)c1 : B (B (>100-500 fold))

Recorded Selectivity in MV411 for `Cc1ncsc1-c1ccc(CNC(=O)[C@@H]2C[C@@H](O)CN2C(=O)[C@@H](NC(=O)[C@H]2CC[C@H](c3ccc(-c4cnc(N5CCN6c7cc(-c8ccccc8O)nnc7NC[C@H]6C5)nc4)cc3)CC2)C(C)(C)C)cc1` , please?
C (C (10-100 fold))

Recorded Selectivity in MV411 for Cc1ncsc1-c1ccc(CNC(=O)[C@@H]2C[C@@H](O)CN2C(=O)[C@@H](NC(=O)C2(F)CC2)C(C)(C)C)c(OC2CCN(Cc3cnc(N4CCc5[nH]c6nnc(-c7ccccc7O)cc6c5[C@H]4C)nc3)CC2)c1 (single isomer, unassigned) , please?
C (C (10-100 fold))

====

Reported DC50 values for a set of compounds
- systemTested: SMARCA4 (Homo sapiens)
- Construct: SMARCA2/SMARCA4 protein degradation selectivity in MV4-11 cells; endogenous in cells; host or cells: MV4-11
- assaySummary: SMARCA4 Western blot degradation in MV4-11 cells
- Type: cell-based
- measurementConditions: MV4-11 cells, 24 h; read-out: SMARCA4 MSD MV411 degradation 24 h: Mean external-Abs DC50

Cc1ncsc1-c1ccc(CNC(=O)[C@@H]2C[C@@H](O)CN2C(=O)[C@@H](NC(=O)N2CCC3(CC2)CC(N2CCC(c4cnc(N5CCN6c7cc(-c8ccccc8O)nnc7NC[C@H]6C5)nc4)CC2)C3)C(C)(C)C)cc1 [I-67] : > 100 nM

Recorded DC50 for Cc1ncsc1-c1ccc(CNC(=O)[C@@H]2C[C@@H](O)CN2C(=O)[C@@H](NC(=O)[C@H]2CC[C@@H](c3ccc(-c4cnc(N5CCN6c7cc(-c8ccccc8O)nnc7NC[C@H]6C5)nc4)cc3)CC2)C(C)(C)C)cc1 [I-86] , please?
1 to 10 nM

====

- systemTested: SMARCA2 (Homo sapiens)
- assaySummary: SMARCA2 Western blot degradation in MV4-11 cells
- Type: cell-based
- Set-up: SMARCA2/SMARCA4 protein degradation selectivity in MV4-11 cells; endogenous in cells; host or cells: MV4-11
- measurementConditions: SMARCA2/4 selectivity, MV4-11 cells
measure: Selectivity in MV411

C#Cc1ccc(CNC(=O)[C@@H]2C[C@@H](O)CN2C(=O)[C@@H](NC(=O)[C@H]2CC3(CC[C@H](N4CCN(c5cnc(N6CCc7[nH]c8nnc(-c9ccccc9O)cc8c7[C@H]6C)nc5)CC4)CC3)C2)C(C)(C)C)cc1 (single isomer, unassigned) [I-300] : C (C (10-100 fold))
C#Cc1ccc([C@H](C)NC(=O)[C@@H]2C[C@@H](O)CN2C(=O)[C@@H](NC(=O)N2CC3(CC(N4CCN(c5cnc(N6CCc7[nH]c8nnc(-c9ccccc9O)cc8c7[C@H]6C)nc5)CC4)C3)C2)C(C)(C)CCO)cc1 : C (C (10-100 fold))
C#Cc1ccc(CNC(=O)[C@@H]2C[C@@H](O)CN2C(=O)[C@@H](NC(=O)N2CC3(CC(N4CCC(c5cnc(N6CCc7[nH]c8nnc(-c9ccccc9O)cc8c7[C@H]6C)nc5)CC4)C3)C2)C(C)(C)C)c(C)c1 : C (C (10-100 fold))
Cc1ncsc1-c1ccc(CNC(=O)[C@@H]2C[C@@H](O)CN2C(=O)C(c2cc(OCCCCN3CCC(c4cnc(N5CCc6[nH]c7nnc(-c8ccccc8O)cc7c6[C@H]5C)nc4)CC3)no2)C(C)C)cc1 (some centres unmarked) : D (D (<10 fold))
C#Cc1ccc(CNC(=O)[C@@H]2C[C@@H](O)CN2C(=O)[C@@H](NC(=O)N2CC3(CC(N4CCC(c5cnc(N6CCc7[nH]c8nnc(-c9ccccc9O)cc8c7[C@@H]6CO)nc5)CC4)C3)C2)C(C)(C)C)cc1 : D (D (<10 fold))
C#Cc1ccc(CNC(=O)[C@@H]2C[C@@H](O)CN2C(=O)[C@@H](NC(=O)C2CCC3(CC2)CC(N2CCC(N4CCC[C@H](C(=O)N5CCN6c7cc(-c8ccccc8O)nnc7NC[C@H]6C5)C4)CC2)C3)C(C)(C)C)cc1 (single isomer, unassigned) : C (C (10-100 fold))

Next item in the queue.
Recorded Selectivity in MV411 for C#Cc1ccc(CNC(=O)[C@@H]2C[C@@H](O)CN2C(=O)[C@@H](NC(=O)[C@H]2CCC3(CC2)C[C@H](N2CCC(c4cnc(N5CCN6c7cc(-c8ccccc8O)nnc7NC[C@H]6C5)nc4)CC2)C3)C(C)(C)C)c(OC)c1 (single isomer, unassigned) [I-125] , please?
C (C (10-100 fold))

====

- systemTested: UniProt:P51531
- assaySummary: MSD SMARCA2 degradation in A549 cell line
- Assay type: cell-based
- measurementConditions: A549 cells
measure: SMARCA2 MSD A549 degradation 24 h: Average Dmax %

C#Cc1ccc(CNC(=O)[C@@H]2C[C@@H](O)CN2C(=O)[C@@H](NC(=O)[C@H]2CCC3(CC2)C[C@H](N2CCC(N4CCC(N5CCN6c7cc(-c8ccccc8O)nnc7NC[C@H]6C5)CC4)CC2)C3)C(C)(C)C)c(Cl)c1 (stereo partly shown) [I-222] : A (A (>90% degradation))
C#Cc1ccc(CNC(=O)[C@@H]2C[C@@H](O)CN2C(=O)[C@@H](NC(=O)[C@H]2CC3(C2)C[C@H](N2CCC(N4CCC(N5CCN6c7cc(-c8ccccc8O)nnc7NC[C@H]6C5)CC4)CC2)C3)C(C)(C)CCO)cc1 (single isomer, unassigned) [I-365] : A (A (>90% degradation))
C#Cc1ccc(CNC(=O)[C@@H]2C[C@@H](O)CN2C(=O)[C@@H](NC(=O)[C@H]2CCC3(CC2)C[C@H](N2CCC(c4cnc(N5CCN6c7cc(-c8cccc(Cl)c8O)nnc7NC[C@H]6C5)nc4)CC2)C3)C(C)(C)C)cc1 (single isomer, unassigned) [I-105] : A (A (>90% degradation))
C#Cc1ccc(CNC(=O)[C@@H]2C[C@@H](O)CN2C(=O)[C@@H](NC(=O)[C@H]2CCC3(CC2)C[C@H](N2CCC(c4cnc(N5CCN6c7cc(-c8ccccc8O)nnc7NC[C@H]6C5)nc4)CC2)C3)C(C)(C)C)c(OCCCN(C)C)c1 (single isomer, unassigned) [I-158] : A (A (>90% degradation))

====

- systemTested: SMARCA4 (Homo sapiens, UniProt P51532)
- Construct: SMARCA2/SMARCA4 protein degradation selectivity in MV4-11 cells; endogenous in cells; host or cells: MV4-11
- Sequence (P51532 whole entry): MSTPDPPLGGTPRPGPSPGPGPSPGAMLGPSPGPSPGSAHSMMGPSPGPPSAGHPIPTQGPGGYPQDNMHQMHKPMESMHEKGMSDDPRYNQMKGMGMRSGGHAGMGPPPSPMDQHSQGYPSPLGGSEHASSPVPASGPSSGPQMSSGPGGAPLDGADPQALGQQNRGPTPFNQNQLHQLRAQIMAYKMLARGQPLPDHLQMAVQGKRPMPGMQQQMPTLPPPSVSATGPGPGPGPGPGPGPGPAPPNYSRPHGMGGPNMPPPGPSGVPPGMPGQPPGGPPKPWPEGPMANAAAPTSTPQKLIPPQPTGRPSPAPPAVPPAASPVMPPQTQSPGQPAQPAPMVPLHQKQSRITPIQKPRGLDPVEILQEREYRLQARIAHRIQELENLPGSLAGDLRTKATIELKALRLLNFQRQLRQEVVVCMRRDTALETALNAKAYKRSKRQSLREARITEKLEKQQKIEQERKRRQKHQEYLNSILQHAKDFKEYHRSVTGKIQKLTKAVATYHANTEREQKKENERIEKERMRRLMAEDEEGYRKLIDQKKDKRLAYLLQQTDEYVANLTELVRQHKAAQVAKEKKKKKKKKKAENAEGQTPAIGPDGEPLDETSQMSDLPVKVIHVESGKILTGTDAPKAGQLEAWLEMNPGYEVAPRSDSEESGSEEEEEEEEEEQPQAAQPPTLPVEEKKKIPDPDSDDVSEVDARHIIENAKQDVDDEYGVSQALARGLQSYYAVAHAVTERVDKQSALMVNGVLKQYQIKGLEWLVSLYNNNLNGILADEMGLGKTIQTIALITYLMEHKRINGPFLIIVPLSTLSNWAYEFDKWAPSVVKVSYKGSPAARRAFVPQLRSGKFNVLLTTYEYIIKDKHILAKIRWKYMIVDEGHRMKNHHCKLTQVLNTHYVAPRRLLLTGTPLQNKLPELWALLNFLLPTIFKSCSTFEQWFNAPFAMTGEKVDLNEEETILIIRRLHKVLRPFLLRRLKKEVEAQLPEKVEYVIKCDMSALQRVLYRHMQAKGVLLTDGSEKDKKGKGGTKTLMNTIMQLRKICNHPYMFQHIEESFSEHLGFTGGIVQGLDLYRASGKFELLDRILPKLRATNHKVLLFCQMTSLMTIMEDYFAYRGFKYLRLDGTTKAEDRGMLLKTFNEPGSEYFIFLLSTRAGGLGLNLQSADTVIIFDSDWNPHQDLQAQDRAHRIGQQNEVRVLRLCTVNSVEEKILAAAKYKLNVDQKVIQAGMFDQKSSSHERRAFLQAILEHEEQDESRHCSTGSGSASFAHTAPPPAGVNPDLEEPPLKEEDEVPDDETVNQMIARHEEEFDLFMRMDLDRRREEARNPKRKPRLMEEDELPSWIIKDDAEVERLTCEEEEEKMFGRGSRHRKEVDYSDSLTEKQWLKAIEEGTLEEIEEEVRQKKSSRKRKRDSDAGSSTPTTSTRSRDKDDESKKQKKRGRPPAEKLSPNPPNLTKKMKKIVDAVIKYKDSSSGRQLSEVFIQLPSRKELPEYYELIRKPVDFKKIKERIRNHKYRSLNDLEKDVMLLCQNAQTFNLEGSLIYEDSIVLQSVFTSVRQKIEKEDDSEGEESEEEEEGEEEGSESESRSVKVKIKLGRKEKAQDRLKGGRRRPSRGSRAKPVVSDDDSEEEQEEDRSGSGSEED
- assaySummary: SMARCA4 Western blot degradation in MV4-11 cells
- Type: cell-based
- measurementConditions: MV4-11 cells, 24 h; read-out: SMARCA4 MSD MV411 degradation 24 h: Mean external-Abs DC50
measure: DC50

These recorded examples may help you get a feel for the data.
Cc1ncsc1-c1ccc(CNC(=O)[C@@H]2C[C@@H](O)CN2C(=O)C(c2cc(OCCN3CCC(N4CCC(c5cnc(N6CCc7[nH]c8nnc(-c9ccccc9O)cc8c7[C@@H]6C)nc5)CC4)CC3)no2)C(C)C)cc1 (single isomer, unassigned) [I-41] : 10 to 100 nM
C#Cc1ccc(CNC(=O)[C@@H]2C[C@@H](O)CN2C(=O)[C@@H](NC(=O)CCCCCCCN2CCC(N3CC4(CC(N5CCN6c7cc(-c8ccccc8O)nnc7NC[C@H]6C5)C4)C3)CC2)C(C)(C)C)cc1 [I-243] : > 100 nM

Recorded DC50 for Cc1ncsc1-c1ccc(CNC(=O)[C@@H]2C[C@@H](O)CN2C(=O)[C@@H](NC(=O)[C@H]2CC[C@H](c3ccc(-c4cnc(N5CCN6c7cc(-c8ccccc8O)nnc7NC[C@H]6C5)nc4)cc3)CC2)C(C)(C)C)cc1 [I-85] , please?
> 100 nM

Recorded DC50 for C#Cc1ccc(CNC(=O)[C@@H]2C[C@@H](O)CN2C(=O)[C@@H](NC(=O)N2CCN(C[C@H]3CC[C@H](N4CCC(N5CCN6c7cc(-c8ccccc8O)nnc7NC[C@H]6C5)CC4)CC3)CC2)C(C)(C)C)cc1 [I-254] , please?
> 100 nM

Recorded DC50 for C#Cc1ccc(CNC(=O)[C@@H]2C[C@@H](O)CN2C(=O)[C@@H](NC(=O)[C@H]2CC3(C2)C[C@H](N2CCC(N4CCC(N5CCN6c7cc(-c8ccccc8O)nnc7NC[C@H]6C5)CC4)CC2)C3)C(C)(C)C)c(O)c1 (stereo partly shown) [I-242] , please?
10 to 100 nM

Recorded DC50 for C#Cc1ccc(CNC(=O)[C@@H]2C[C@@H](O)CN2C(=O)[C@@H](NC(=O)[C@H]2CCC3(CC2)C[C@H](N2CCN(c4cnc(N5CCN6c7cc(-c8ccccc8O)nnc7NC[C@H]6C5)nc4)CC2)C3)C(C)(C)CCO)cc1 (single isomer, unassigned) [I-287] , please?
> 100 nM

Recorded DC50 for Cc1ncsc1-c1ccc([C@H](C)NC(=O)[C@@H]2C[C@@H](O)CN2C(=O)[C@@H](NC(=O)Cc2ccc(CCCC(=O)N3CCN4c5cc(-c6ccccc6O)nnc5NC[C@H]4C3)cc2)C(C)(C)C)cc1 (single isomer, unassigned) [I-83] , please?
10 to 100 nM

Recorded DC50 for C#Cc1ccc(CNC(=O)[C@@H]2C[C@@H](O)CN2C(=O)[C@@H](NC(=O)[C@H]2CCC3(CC2)C[C@H](N2CCC(c4cnc(N5CCN6c7cc(-c8ccccc8O)nnc7NC[C@H]6C5)nc4)CC2)C3)C(C)(C)C)c(F)c1 (single isomer, unassigned) [I-116] , please?
> 100 nM

Recorded DC50 for Cc1ncsc1-c1ccc(CNC(=O)[C@@H]2C[C@@H](O)CN2C(=O)[C@@H](NC(=O)C2(F)CC2)C(C)(C)C)c(O[C@H]2CC[C@H](N3CCC(c4cnc(N5CCc6[nH]c7nnc(-c8ccccc8O)cc7c6[C@@H]5C)nc4)CC3)CC2)c1 (single isomer, unassigned) [I-33] , please?
> 100 nM

Recorded DC50 for C#Cc1ccc([C@H](CCO)NC(=O)[C@@H]2C[C@@H](O)CN2C(=O)[C@@H](NC(=O)N2CC3(CC(N4CCC(c5cnc(N6CCc7[nH]c8nnc(-c9ccccc9O)cc8c7[C@H]6C)nc5)CC4)C3)C2)C(C)(C)C)cc1 [I-169] , please?
> 100 nM
